Numbers sourced from ChEMBL document CHEMBL5058577.

Would you mind telling me the reported Population Healthy Nuclei (%) of each entry?
system: U2OS; assay: Multiplex assay against U2OS; assay type: toxicity, cell-based; conditions: human, 48 h, 10 µM, compound concentration 10 uM, replicate 1
# output: bare number, implied unit %

Prompt: // query Population Healthy Nuclei (%) value for entry CC(C)(C)c1ccc(CSc2cnn(C(C)(C)C)c(=O)c2Cl)cc1
Response: 64

Prompt: // query Population Healthy Nuclei (%) value for entry COc1cc(C(=O)N2CC[C@@H](O)[C@@H](N)C2)cc2nc(-c3cc4ccccc4n3CC3CC3)n(C)c12.Cl
Response: 35

Prompt: // query Population Healthy Nuclei (%) value for entry Cc1sc2c(c1C)C(c1ccc(Cl)cc1)=N[C@H](CC(=O)OC(C)(C)C)c1nnc(C)n1-2
Response: 57

Prompt: // query Population Healthy Nuclei (%) value for entry CCn1c(-c2nc3cc(C(=O)N4CCCC(N)C4)ccc3n2C)cc2ccccc21.Cl (centres undefined)
Response: 53

Prompt: // query Population Healthy Nuclei (%) value for entry CC(C)C[C@H](CO)Nc1nc(S[C@@H](C)c2ccccc2)nc2nc(N)sc12
Response: 54

Prompt: // query Population Healthy Nuclei (%) value for entry CN1CCN(c2ccc(Nc3c4ccccc4nc4ccccc34)cc2)CC1.Cl.Cl.O
Response: 30

Prompt: // query Population Healthy Nuclei (%) value for entry Cc1cc(NC(=O)NCCN2CCC(O)(Cc3ccccc3)CC2)c2ccccc2n1
Response: 70

Prompt: // query Population Healthy Nuclei (%) value for entry CN1CCN2c3ccccc3Cc3ccccc3C2C1.Cl (centres undefined) [MIANSERIN HYDROCHLORIDE]
Response: 71

Prompt: // query Population Healthy Nuclei (%) value for entry Cc1c(Cc2ccc3ccccc3n2)c2cc(F)ccc2n1CC(=O)O
Response: 74

* * *

system: U2OS; test: Multiplex assay against U2OS; assay type: toxicity, cell-based; conditions: human, 12 h, 10 µM, compound concentration 10 uM, replicate 1
Would you mind telling me the reported Population Hoechst High Intensity Objects (%) of each entry?

Prompt: // query Population Hoechst High Intensity Objects (%) value for entry Cc1ccc(OCC(O)C(C)NC(C)C)c2c1CCC2.Cl (configuration not stated)
Response: 5%

Prompt: // query Population Hoechst High Intensity Objects (%) value for entry O=c1ccc2ccc(OCCCCN3CCN(c4cccc5sccc45)CC3)cc2[nH]1
Response: 6%

Prompt: // query Population Hoechst High Intensity Objects (%) value for entry S=C(NCCCc1c[nH]cn1)NCCCN(Cc1ccc(Cl)c(Cl)c1)c1ccc(Br)cn1
Response: 6%

Prompt: // query Population Hoechst High Intensity Objects (%) value for entry CN1C[C@H](C(=O)N[C@]2(C)O[C@@]3(O)[C@@H]4CCCN4C(=O)[C@H](Cc4ccccc4)N3C2=O)C[C@@H]2c3cccc4[nH]cc(c34)C[C@H]21.CS(=O)(=O)O [DIHYDROERGOTAMINE MESYLATE]
Response: 2%

Prompt: // query Population Hoechst High Intensity Objects (%) value for entry COc1cc2nc(N3CCN(C(=O)COc4c(OC)cccc4C(C)C)CC3)nc(N)c2cc1OC.Cl.Cl
Response: 3%

Prompt: // query Population Hoechst High Intensity Objects (%) value for entry CN1CCN2c3ccccc3Cc3ccccc3C2C1.Cl (configuration not stated) [MIANSERIN HYDROCHLORIDE]
Response: 2%

Prompt: // query Population Hoechst High Intensity Objects (%) value for entry O=C(O)CCC/C=C\CC1C(O)CC(O)C1/C=C/C(O)COc1cccc(Cl)c1 (configuration not stated)
Response: 2%
